Please go through the items and note down their Size of Zone of Inhibition (mm) B. subtilis ATCC 6633, grown on minimal nutrient agar.
system: Bacillus subtilis ATCC 6633; assay: agar-plate disc-diffusion test; settings: grown on minimal nutrient agar; 1 mg/ml; 7 mm disc; 24-48 hours at 25-37° C.
// note: answer is a bare numeric in mm

Exercise: State the recorded Size of Zone of Inhibition (mm) B. subtilis ATCC 6633, grown on minimal nutrient agar for this entry: CCC(C)CCCCCCC(=O)N[C@@H](Cc1c[nH]c2ccccc12)C(=O)N[C@@H](CC(N)=O)C(=O)N[C@@H](CC(=O)O)C(=O)N[C@@H]1C(=O)NCC(=O)N[C@@H](CCCNC(C)=O)C(=O)N[C@@H](CC(=O)O)C(=O)N[C@H](C)C(=O)N[C@@H](CC(=O)O)C(=O)NCC(=O)N[C@H](CO)C(=O)N[C@@H]([C@H](C)CC(=O)O)C(=O)N[C@@H](CC(=O)c2ccccc2N)C(=O)O[C@@H]1C (stereo partly drawn)
Solution: 25

Exercise: State the recorded Size of Zone of Inhibition (mm) B. subtilis ATCC 6633, grown on minimal nutrient agar for this entry: CCCCCCCCCCCCCCCC(=O)N[C@@H](Cc1c[nH]c2ccccc12)C(=O)N[C@@H](CC(N)=O)C(=O)N[C@@H](CC(=O)O)C(=O)N[C@@H]1C(=O)NCC(=O)N[C@@H](CCCN)C(=O)N[C@@H](CC(=O)O)C(=O)N[C@H](C)C(=O)N[C@@H](CC(=O)O)C(=O)NCC(=O)N[C@H](CO)C(=O)N[C@@H]([C@H](C)CC(=O)O)C(=O)N[C@@H](CC(=O)c2ccccc2N)C(=O)O[C@@H]1C
Solution: 23

Exercise: State the recorded Size of Zone of Inhibition (mm) B. subtilis ATCC 6633, grown on minimal nutrient agar for this entry: CCCCCCCCCCC(=O)N[C@@H](Cc1c[nH]c2ccccc12)C(=O)N[C@@H](CC(N)=O)C(=O)N[C@@H](CC(=O)O)C(=O)N[C@@H]1C(=O)NCC(=O)N[C@@H](CCCN)C(=O)N[C@@H](CC(=O)O)C(=O)N[C@H](C)C(=O)N[C@@H](CC(=O)O)C(=O)NCC(=O)N[C@H](CO)C(=O)N[C@@H]([C@H](C)CC(=O)O)C(=O)N[C@@H](CC(=O)c2ccccc2N)C(=O)O[C@@H]1C
Solution: 21

---

system: Bacillus subtilis ATCC 6633; test: agar-plate disc-diffusion test; conditions: suspended in water at 1 mg/ml; 7 mm disc; 24-48 hours at 25-37° C.
Please go through the items and note down their Size of Zone of Inhibition (mm) Bacillus subtilis ATCC 6633.
// note: answer is a bare numeric in mm

Exercise: What is its Size of Zone of Inhibition (mm) Bacillus subtilis ATCC 6633 for Bacillus subtilis ATCC 6633? Entry: CCCCC=CCCCCCCCC(=O)N[C@@H](Cc1c[nH]c2ccccc12)C(=O)N[C@@H](CC(N)=O)C(=O)N[C@@H](CC(=O)O)C(=O)N[C@@H]1C(=O)NCC(=O)N[C@@H](CCCN)C(=O)N[C@@H](CC(=O)O)C(=O)N[C@H](C)C(=O)N[C@@H](CC(=O)O)C(=O)NCC(=O)N[C@H](CO)C(=O)N[C@@H]([C@H](C)CC(=O)O)C(=O)N[C@@H](CC(=O)c2ccccc2N)C(=O)O[C@@H]1C
Solution: 19

Exercise: What is its Size of Zone of Inhibition (mm) Bacillus subtilis ATCC 6633 for Bacillus subtilis ATCC 6633? Entry: CCCCCCC(=O)N[C@@H](Cc1c[nH]c2ccccc12)C(=O)N[C@@H](CC(N)=O)C(=O)N[C@@H](CC(=O)O)C(=O)N[C@@H]1C(=O)NCC(=O)N[C@@H](CCCN)C(=O)N[C@@H](CC(=O)O)C(=O)N[C@H](C)C(=O)N[C@@H](CC(=O)O)C(=O)NCC(=O)N[C@H](CO)C(=O)N[C@@H]([C@H](C)CC(=O)O)C(=O)N[C@@H](CC(=O)c2ccccc2N)C(=O)O[C@@H]1C
Solution: 15

Exercise: What is its Size of Zone of Inhibition (mm) Bacillus subtilis ATCC 6633 for Bacillus subtilis ATCC 6633? Entry: CCCCCCCCCCCCCCC(=O)N[C@@H](Cc1c[nH]c2ccccc12)C(=O)N[C@@H](CC(N)=O)C(=O)N[C@@H](CC(=O)O)C(=O)N[C@@H]1C(=O)NCC(=O)N[C@@H](CCCN)C(=O)N[C@@H](CC(=O)O)C(=O)N[C@H](C)C(=O)N[C@@H](CC(=O)O)C(=O)NCC(=O)N[C@H](CO)C(=O)N[C@@H]([C@H](C)CC(=O)O)C(=O)N[C@@H](CC(=O)c2ccccc2N)C(=O)O[C@@H]1C
Solution: 19

Exercise: What is its Size of Zone of Inhibition (mm) Bacillus subtilis ATCC 6633 for Bacillus subtilis ATCC 6633? Entry: CCCCCCCCC(=O)N[C@@H](Cc1c[nH]c2ccccc12)C(=O)N[C@@H](CC(N)=O)C(=O)N[C@@H](CC(=O)O)C(=O)N[C@@H]1C(=O)NCC(=O)N[C@@H](CCCN)C(=O)N[C@@H](CC(=O)O)C(=O)N[C@H](C)C(=O)N[C@@H](CC(=O)O)C(=O)NCC(=O)N[C@H](CO)C(=O)N[C@@H]([C@H](C)CC(=O)O)C(=O)N[C@@H](CC(=O)c2ccccc2N)C(=O)O[C@@H]1C
Solution: 16

---

system: Staphylococcus aureus; assay: in vivo activity against experimental bacterial infection (ED50); conditions: mice; two doses subcutaneously; dose protecting fifty percent of test animals
Please go through the items and note down their ED50 Staphylococcus aureus Subcutaneous.
// note: answer is a bare numeric in mg/kg × 2

Exercise: What is its ED50 Staphylococcus aureus Subcutaneous for Staphylococcus aureus? Entry: CCCCC=CCCCCCCCC(=O)N[C@@H](Cc1c[nH]c2ccccc12)C(=O)N[C@@H](CC(N)=O)C(=O)N[C@@H](CC(=O)O)C(=O)N[C@@H]1C(=O)NCC(=O)N[C@@H](CCCN)C(=O)N[C@@H](CC(=O)O)C(=O)N[C@H](C)C(=O)N[C@@H](CC(=O)O)C(=O)NCC(=O)N[C@H](CO)C(=O)N[C@@H]([C@H](C)CC(=O)O)C(=O)N[C@@H](CC(=O)c2ccccc2N)C(=O)O[C@@H]1C
Solution: 3.28

Exercise: What is its ED50 Staphylococcus aureus Subcutaneous for Staphylococcus aureus? Entry: CCCCCCCCCCC(=O)N[C@@H](Cc1c[nH]c2ccccc12)C(=O)N[C@@H](CC(N)=O)C(=O)N[C@@H](CC(=O)O)C(=O)N[C@@H]1C(=O)NCC(=O)N[C@@H](CCCN)C(=O)N[C@@H](CC(=O)O)C(=O)N[C@H](C)C(=O)N[C@@H](CC(=O)O)C(=O)NCC(=O)N[C@H](CO)C(=O)N[C@@H]([C@H](C)CC(=O)O)C(=O)N[C@@H](CC(=O)c2ccccc2N)C(=O)O[C@@H]1C
Solution: 0.37

Exercise: What is its ED50 Staphylococcus aureus Subcutaneous for Staphylococcus aureus? Entry: CCCCCCC(=O)N[C@@H](Cc1c[nH]c2ccccc12)C(=O)N[C@@H](CC(N)=O)C(=O)N[C@@H](CC(=O)O)C(=O)N[C@@H]1C(=O)NCC(=O)N[C@@H](CCCN)C(=O)N[C@@H](CC(=O)O)C(=O)N[C@H](C)C(=O)N[C@@H](CC(=O)O)C(=O)NCC(=O)N[C@H](CO)C(=O)N[C@@H]([C@H](C)CC(=O)O)C(=O)N[C@@H](CC(=O)c2ccccc2N)C(=O)O[C@@H]1C
Solution: 2.65

---

tested on: Staphylococcus epidermidis EPI2; assay type: cell-based; details: agar dilution; 2, 5, 17, 22 median of three tests; paired values two experiments
endpoint: MIC Staphylococcus epidermidis EPI2 (µg/mL)
// note: answer is a bare numeric in µg/mL

Exercise: What is its MIC Staphylococcus epidermidis EPI2 for Staphylococcus epidermidis EPI2? Entry: CCCCC=CCCCCCCCC(=O)N[C@@H](Cc1c[nH]c2ccccc12)C(=O)N[C@@H](CC(N)=O)C(=O)N[C@@H](CC(=O)O)C(=O)N[C@@H]1C(=O)NCC(=O)N[C@@H](CCCN)C(=O)N[C@@H](CC(=O)O)C(=O)N[C@H](C)C(=O)N[C@@H](CC(=O)O)C(=O)NCC(=O)N[C@H](CO)C(=O)N[C@@H]([C@H](C)CC(=O)O)C(=O)N[C@@H](CC(=O)c2ccccc2N)C(=O)O[C@@H]1C [Compound 12]
Solution: 2

Exercise: What is its MIC Staphylococcus epidermidis EPI2 for Staphylococcus epidermidis EPI2? Entry: CCCCCCCCCCCCC(=O)N[C@@H](Cc1c[nH]c2ccccc12)C(=O)N[C@@H](CC(N)=O)C(=O)N[C@@H](CC(=O)O)C(=O)N[C@@H]1C(=O)NCC(=O)N[C@@H](CCCN)C(=O)N[C@@H](CC(=O)O)C(=O)N[C@H](C)C(=O)N[C@@H](CC(=O)O)C(=O)NCC(=O)N[C@H](CO)C(=O)N[C@@H]([C@H](C)CC(=O)O)C(=O)N[C@@H](CC(=O)c2ccccc2N)C(=O)O[C@@H]1C [Compound 7]
Solution: 0.5

Exercise: What is its MIC Staphylococcus epidermidis EPI2 for Staphylococcus epidermidis EPI2? Entry: CCCCCCCC(=O)NCCC[C@@H]1NC(=O)CNC(=O)[C@@H](NC(=O)[C@H](CC(=O)O)NC(=O)[C@H](CC(N)=O)NC(=O)[C@H](Cc2c[nH]c3ccccc23)NC(=O)CCCCCCC)[C@@H](C)OC(=O)[C@H](CC(=O)c2ccccc2N)NC(=O)[C@H]([C@H](C)CC(=O)O)NC(=O)[C@@H](CO)NC(=O)CNC(=O)[C@H](CC(=O)O)NC(=O)[C@@H](C)NC(=O)[C@H](CC(=O)O)NC1=O [Compound 16]
Solution: 16

Exercise: What is its MIC Staphylococcus epidermidis EPI2 for Staphylococcus epidermidis EPI2? Entry: CCCCCCCCCCC(=O)NCCC[C@@H]1NC(=O)CNC(=O)[C@@H](NC(=O)[C@H](CC(=O)O)NC(=O)[C@H](CC(N)=O)NC(=O)[C@H](Cc2c[nH]c3ccccc23)NC(=O)CCCCCCCCCC)[C@@H](C)OC(=O)[C@H](CC(=O)c2ccccc2N)NC(=O)[C@H]([C@H](C)CC(=O)O)NC(=O)[C@@H](CO)NC(=O)CNC(=O)[C@H](CC(=O)O)NC(=O)[C@@H](C)NC(=O)[C@H](CC(=O)O)NC1=O [Compound 17]
Solution: 8

Exercise: What is its MIC Staphylococcus epidermidis EPI2 for Staphylococcus epidermidis EPI2? Entry: CCCCCCCCCCCC(=O)N[C@@H](Cc1c[nH]c2ccccc12)C(=O)N[C@@H](CC(N)=O)C(=O)N[C@@H](CC(=O)O)C(=O)N[C@@H]1C(=O)NCC(=O)N[C@@H](CCCN)C(=O)N[C@@H](CC(=O)O)C(=O)N[C@H](C)C(=O)N[C@@H](CC(=O)O)C(=O)NCC(=O)N[C@H](CO)C(=O)N[C@@H]([C@H](C)CC(=O)O)C(=O)N[C@@H](CC(=O)c2ccccc2N)C(=O)O[C@@H]1C [Compound 6]
Solution: 1

Exercise: What is its MIC Staphylococcus epidermidis EPI2 for Staphylococcus epidermidis EPI2? Entry: CCCCCCCC(=O)N[C@@H](Cc1c[nH]c2ccccc12)C(=O)N[C@@H](CC(N)=O)C(=O)N[C@@H](CC(=O)O)C(=O)N[C@@H]1C(=O)NCC(=O)N[C@@H](CCCN)C(=O)N[C@@H](CC(=O)O)C(=O)N[C@H](C)C(=O)N[C@@H](CC(=O)O)C(=O)NCC(=O)N[C@H](CO)C(=O)N[C@@H]([C@H](C)CC(=O)O)C(=O)N[C@@H](CC(=O)c2ccccc2N)C(=O)O[C@@H]1C [Compound 2]
Solution: 4

Exercise: What is its MIC Staphylococcus epidermidis EPI2 for Staphylococcus epidermidis EPI2? Entry: CCCCCCCCC(=O)N[C@@H](Cc1c[nH]c2ccccc12)C(=O)N[C@@H](CC(N)=O)C(=O)N[C@@H](CC(=O)O)C(=O)N[C@@H]1C(=O)NCC(=O)N[C@@H](CCCN)C(=O)N[C@@H](CC(=O)O)C(=O)N[C@H](C)C(=O)N[C@@H](CC(=O)O)C(=O)NCC(=O)N[C@H](CO)C(=O)N[C@@H]([C@H](C)CC(=O)O)C(=O)N[C@@H](CC(=O)c2ccccc2N)C(=O)O[C@@H]1C [Compound 3]
Solution: 2

Exercise: What is its MIC Staphylococcus epidermidis EPI2 for Staphylococcus epidermidis EPI2? Entry: C=CCCCCCCCCC(=O)N[C@@H](Cc1c[nH]c2ccccc12)C(=O)N[C@@H](CC(N)=O)C(=O)N[C@@H](CC(=O)O)C(=O)N[C@@H]1C(=O)NCC(=O)N[C@@H](CCCN)C(=O)N[C@@H](CC(=O)O)C(=O)N[C@H](C)C(=O)N[C@@H](CC(=O)O)C(=O)NCC(=O)N[C@H](CO)C(=O)N[C@@H]([C@H](C)CC(=O)O)C(=O)N[C@@H](CC(=O)c2ccccc2N)C(=O)O[C@@H]1C [Compound 11]
Solution: 1

Exercise: What is its MIC Staphylococcus epidermidis EPI2 for Staphylococcus epidermidis EPI2? Entry: CCCCCCC(=O)N[C@@H](Cc1c[nH]c2ccccc12)C(=O)N[C@@H](CC(N)=O)C(=O)N[C@@H](CC(=O)O)C(=O)N[C@@H]1C(=O)NCC(=O)N[C@@H](CCCN)C(=O)N[C@@H](CC(=O)O)C(=O)N[C@H](C)C(=O)N[C@@H](CC(=O)O)C(=O)NCC(=O)N[C@H](CO)C(=O)N[C@@H]([C@H](C)CC(=O)O)C(=O)N[C@@H](CC(=O)c2ccccc2N)C(=O)O[C@@H]1C [Compound 1]
Solution: 8

Exercise: What is its MIC Staphylococcus epidermidis EPI2 for Staphylococcus epidermidis EPI2? Entry: CCCCCCCCCCC(=O)N[C@@H](Cc1c[nH]c2ccccc12)C(=O)N[C@@H](CC(N)=O)C(=O)N[C@@H](CC(=O)O)C(=O)N[C@@H]1C(=O)NCC(=O)N[C@@H](CCCN)C(=O)N[C@@H](CC(=O)O)C(=O)N[C@H](C)C(=O)N[C@@H](CC(=O)O)C(=O)NCC(=O)N[C@H](CO)C(=O)N[C@@H]([C@H](C)CC(=O)O)C(=O)N[C@@H](CC(=O)c2ccccc2N)C(=O)O[C@@H]1C [Compound 5]
Solution: 0.5

meta.source: patent US4537717A
